- Tested on: P. falciparum K1 strain vs MRC-5 human fibroblasts
- TEST METHOD NOTES: Selectivity index, IC50 (human fibroblasts) ÷ IC50 (P. falciparum)
- Format: cell-based, Plasmodium falciparum
selectivity index (SI) by entry:

Qu. Tell me selectivity index (SI) reported for CC(=O)O[C@H]1C[C@H]2C(C)(C)C(=O)C=C[C@]2(C)[C@H]2CC[C@@]3(C)[C@H](c4ccoc4)OC(=O)[C@H]4O[C@]43[C@]12C [compound 5, 7-epi-gedunin]
Ans. >45

Qu. Tell me selectivity index (SI) reported for CC1(C)C(=O)C=C[C@]2(C)[C@H]3CC[C@@]4(C)[C@H](c5ccoc5)OC(=O)[C@H]5O[C@]54[C@]3(C)[C@H](O)[C@H](OC(=O)c3ccccc3)[C@@H]12 [compound 14, 7-deacetyl-6α-benzoxygedunin]
Ans. >11

Qu. Tell me selectivity index (SI) reported for CCCCC(=O)O[C@H]1C[C@H]2C(C)(C)C(=O)C=C[C@]2(C)[C@H]2CC[C@@]3(C)[C@H](c4ccoc4)OC(=O)[C@H]4O[C@]43[C@]12C [compound 9, 7-deacetyl-7-pentanoyl-7-epi-gedunin]
Ans. >14

Qu. Tell me selectivity index (SI) reported for CC1(C)C(=O)C=C[C@]2(C)[C@H]3CC[C@@]4(C)[C@H](c5ccoc5)OC(=O)[C@H]5O[C@]54[C@]3(C)[C@H](O)C[C@@H]12 [compound 2, 7-deacetylgedunin]
Ans. >8.5

Qu. Tell me selectivity index (SI) reported for CCCC(=O)O[C@H]1C[C@H]2C(C)(C)C(=O)C=C[C@]2(C)[C@H]2CC[C@@]3(C)[C@H](c4ccoc4)OC(=O)[C@H]4O[C@]43[C@]12C [compound 7, 7-deacetyl-7-butanoyl-7-epi-gedunin]
Ans. >21

====

- Tested on: P. falciparum K1 strain vs MRC-5 human fibroblasts
- TEST METHOD NOTES: Selectivity index, IC50 (human fibroblasts) ÷ IC50 (P. falciparum)
- Format: cell-based, Plasmodium falciparum
ASSAY ENDPOINT: selectivity index (SI)

Qu. Tell me selectivity index (SI) reported for CC1(C)C(=O)C=C[C@]2(C)[C@H]3CC[C@@]4(C)[C@H](c5ccoc5)OC(=O)[C@H]5O[C@]54[C@]3(C)[C@H](O)[C@H](O)[C@@H]12 [compound 10, 7-deacetyl-6α-hydroxygedunin]
Ans. >16

Qu. Tell me selectivity index (SI) reported for CC(=O)O[C@@H]1[C@H](O)[C@H]2C(C)(C)C(=O)C=C[C@]2(C)[C@H]2CC[C@@]3(C)[C@H](c4ccoc4)OC(=O)[C@H]4O[C@]43[C@]12C [compound 11, 6α-hydroxygedunin]
Ans. >26

Qu. Tell me selectivity index (SI) reported for CC(=O)O[C@@H]1C[C@H]2C(C)(C)C(=O)C=C[C@]2(C)[C@H]2CC[C@@]3(C)[C@H](c4ccoc4)OC(=O)[C@H]4O[C@]43[C@@]21C (single isomer, unassigned)
Ans. >37

Qu. Tell me selectivity index (SI) reported for `CC1(C)[C@H](O)CC[C@]2(C)[C@H]3CC[C@@]4(C)[C@H](c5ccoc5)OC(=O)[C@H]5O[C@]54[C@]3(C)[C@@H](O)C[C@@H]12`
Ans. >3.2

====

- Test system: P. falciparum K1 strain vs MRC-5 human fibroblasts
- TEST METHOD NOTES: Selectivity index, IC50 (human fibroblasts) ÷ IC50 (P. falciparum)
- Format: cell-based, Plasmodium falciparum
ASSAY ENDPOINT: selectivity index (SI)

# COMPOUND, selectivity index (SI)
records = [
    ("CCCC(=O)O[C@H]1[C@@H](O)[C@]2(C)[C@H](CC[C@@]3(C)[C@H](c4ccoc4)OC(=O)[C@H]4O[C@@]423)[C@@]2(C)C=CC(=O)C(C)(C)[C@H]12", ">15"),
    ("CCCC(=O)O[C@@H]1C[C@H]2C(C)(C)C(=O)C=C[C@]2(C)[C@H]2CC[C@@]3(C)[C@H](c4ccoc4)OC(=O)[C@H]4O[C@]43[C@@]21C", ">21"),
    ("CCCCCCC(=O)O[C@H]1[C@@H](O)[C@]2(C)[C@H](CC[C@@]3(C)[C@H](c4ccoc4)OC(=O)[C@H]4O[C@@]423)[C@@]2(C)C=CC(=O)C(C)(C)[C@H]12", ">9.4"),
    ("CC1(C)C(=O)C=C[C@]2(C)[C@H]3CC[C@@]4(C)[C@H](c5ccoc5)OC(=O)[C@H]5O[C@]54[C@]3(C)[C@@H](O)C[C@@H]12 [compound 3, 7-deacetyl-7-epi-gedunin]", ">15"),
]

# context switch: different compound, same selectivity index (SI)
Qu. Report value: selectivity index (SI), system: P. falciparum K1 strain vs MRC-5 human fibroblasts, compound: `CCCCC(=O)O[C@@H]1C[C@H]2C(C)(C)C(=O)C=C[C@]2(C)[C@H]2CC[C@@]3(C)[C@H](c4ccoc4)OC(=O)[C@H]4O[C@]43[C@@]21C`
Ans. >12
